System: Mycobacterium tuberculosis Erdman (autoluminescent)
Experiment: total FIC90 (Loewe) at 90% inhibition, three-drug combination (log2); higher = more antagonistic
Settings: in vitro model: valerate; time point: terminal (~4-5 doublings, model-specific)
Below, each of the compounds is paired with its reported total FIC90 value.
MEASURED ATTRIBUTE: total FIC90

- CC[C@@H](CO)NCCN[C@@H](CC)CO [ethambutol] + NNC(=O)c1ccncc1 [isoniazid] + COc1c(N2C[C@@H]3CCCN[C@@H]3C2)c(F)cc2c(=O)c(C(=O)O)cn(C3CC3)c12 [moxifloxacin]: 0.19
- COc1nc2ccc(Br)cc2cc1[C@@H](c1ccccc1)[C@@](O)(CCN(C)C)c1cccc2ccccc12 [bedaquiline] + NNC(=O)c1ccncc1 [isoniazid] + CO[C@H]1/C=C/O[C@@]2(C)Oc3c(C)c(O)c4c(O)c(c(/C=N/N5CCN(C6CCCC6)CC5)c(O)c4c3C2=O)NC(=O)/C(C)=C\C=C\[C@H](C)[C@H](O)[C@@H](C)[C@@H](O)[C@@H](C)[C@H](OC(C)=O)[C@@H]1C [rifapentine]: 1
- CC(C)/N=c1\cc2n(-c3ccc(Cl)cc3)c3ccccc3nc-2cc1Nc1ccc(Cl)cc1 [clofazimine] + CC[C@@H](CO)NCCN[C@@H](CC)CO [ethambutol] + CO[C@H]1/C=C/O[C@@]2(C)Oc3c(C)c(O)c4c(O)c(c(/C=N/N5CCN(C)CC5)c(O)c4c3C2=O)NC(=O)/C(C)=C\C=C\[C@H](C)[C@H](O)[C@@H](C)[C@@H](O)[C@@H](C)[C@H](OC(C)=O)[C@@H]1C [rifampicin]: -0.638
- CC(C)/N=c1\cc2n(-c3ccc(Cl)cc3)c3ccccc3nc-2cc1Nc1ccc(Cl)cc1 [clofazimine] + CC(=O)NC[C@H]1CN(c2ccc(N3CCOCC3)c(F)c2)C(=O)O1 [linezolid] + O=[N+]([O-])c1cn2c(n1)OC[C@@H](OCc1ccc(OC(F)(F)F)cc1)C2 [pretomanid]: 1.37
- CC[C@@H](CO)NCCN[C@@H](CC)CO [ethambutol] + CC(=O)NC[C@H]1CN(c2ccc(N3CCOCC3)c(F)c2)C(=O)O1 [linezolid] + CO[C@H]1/C=C/O[C@@]2(C)Oc3c(C)c(O)c4c(O)c(c(/C=N/N5CCN(C)CC5)c(O)c4c3C2=O)NC(=O)/C(C)=C\C=C\[C@H](C)[C@H](O)[C@@H](C)[C@@H](O)[C@@H](C)[C@H](OC(C)=O)[C@@H]1C [rifampicin]: -0.279
- CC[C@@H](CO)NCCN[C@@H](CC)CO [ethambutol] + COc1c(N2C[C@@H]3CCCN[C@@H]3C2)c(F)cc2c(=O)c(C(=O)O)cn(C3CC3)c12 [moxifloxacin] + O=[N+]([O-])c1cn2c(n1)OC[C@@H](OCc1ccc(OC(F)(F)F)cc1)C2 [pretomanid]: -0.798

====

System: Mycobacterium tuberculosis Erdman (autoluminescent)
Assay: Einf, fitted maximum growth inhibition of combination (fraction); higher = stronger maximal inhibition
Details: in vitro model: acidic pH 5.7; time point: constant (~7 days, model-specific)
Listed below: Einf values for each entry.
MEASURED ATTRIBUTE: Einf

• COc1nc2ccc(Br)cc2cc1[C@@H](c1ccccc1)[C@@](O)(CCN(C)C)c1cccc2ccccc12 [bedaquiline] + CC(=O)NC[C@H]1CN(c2ccc(N3CCOCC3)c(F)c2)C(=O)O1 [linezolid] = 0.859
• CC(C)/N=c1\cc2n(-c3ccc(Cl)cc3)c3ccccc3nc-2cc1Nc1ccc(Cl)cc1 [clofazimine] + CO[C@H]1/C=C/O[C@@]2(C)Oc3c(C)c(O)c4c(O)c(c(/C=N/N5CCN(C)CC5)c(O)c4c3C2=O)NC(=O)/C(C)=C\C=C\[C@H](C)[C@H](O)[C@@H](C)[C@@H](O)[C@@H](C)[C@H](OC(C)=O)[C@@H]1C [rifampicin] = 0.874
• O=[N+]([O-])c1cn2c(n1)OC[C@@H](OCc1ccc(OC(F)(F)F)cc1)C2 [pretomanid] + CO[C@H]1/C=C/O[C@@]2(C)Oc3c(C)c(O)c4c(O)c(c(/C=N/N5CCN(C6CCCC6)CC5)c(O)c4c3C2=O)NC(=O)/C(C)=C\C=C\[C@H](C)[C@H](O)[C@@H](C)[C@@H](O)[C@@H](C)[C@H](OC(C)=O)[C@@H]1C [rifapentine] = 0.925
• COc1nc2ccc(Br)cc2cc1[C@@H](c1ccccc1)[C@@](O)(CCN(C)C)c1cccc2ccccc12 [bedaquiline] + NNC(=O)c1ccncc1 [isoniazid] = 0.873
• CC(=O)NC[C@H]1CN(c2ccc(N3CCOCC3)c(F)c2)C(=O)O1 [linezolid] + CO[C@H]1/C=C/O[C@@]2(C)Oc3c(C)c(O)c4c(O)c(c(/C=N/N5CCN(C6CCCC6)CC5)c(O)c4c3C2=O)NC(=O)/C(C)=C\C=C\[C@H](C)[C@H](O)[C@@H](C)[C@@H](O)[C@@H](C)[C@H](OC(C)=O)[C@@H]1C [rifapentine] = 0.89
• COc1nc2ccc(Br)cc2cc1[C@@H](c1ccccc1)[C@@](O)(CCN(C)C)c1cccc2ccccc12 [bedaquiline] + CO[C@H]1/C=C/O[C@@]2(C)Oc3c(C)c(O)c4c(O)c(c(/C=N/N5CCN(C6CCCC6)CC5)c(O)c4c3C2=O)NC(=O)/C(C)=C\C=C\[C@H](C)[C@H](O)[C@@H](C)[C@@H](O)[C@@H](C)[C@H](OC(C)=O)[C@@H]1C [rifapentine] = 0.969
• CC(C)/N=c1\cc2n(-c3ccc(Cl)cc3)c3ccccc3nc-2cc1Nc1ccc(Cl)cc1 [clofazimine] + NNC(=O)c1ccncc1 [isoniazid] = 0.747
